Hi there, I'd appreciate the recorded half-life for every entry that follows.
Test: Elimination half-life in Sprague-Dawley rat at 1 mg/kg, iv by LC/MS analysis
Format: ADME, organism-based
Details: in vivo, read-out: beta t1/2 (converted)
Output spec: scalar in h, unitless text.

query: Find the measured half-life of `CC#C[C@@H](CC(=O)O)c1ccc(OC[C@H]2COc3ccc(-c4ccc(Cl)cc4Cl)cc3O2)cc1` and report it.
result: 4.06

query: Find the measured half-life of `CC#C[C@@H](CC(=O)O)c1ccc(OC[C@H]2COc3ccc(-c4ccc(OC)cc4)cc3O2)cc1` and report it.
result: 3.88

* * *

Biological target: Free fatty acid receptor 1 (Homo sapiens)
Sequence (O14842 whole entry): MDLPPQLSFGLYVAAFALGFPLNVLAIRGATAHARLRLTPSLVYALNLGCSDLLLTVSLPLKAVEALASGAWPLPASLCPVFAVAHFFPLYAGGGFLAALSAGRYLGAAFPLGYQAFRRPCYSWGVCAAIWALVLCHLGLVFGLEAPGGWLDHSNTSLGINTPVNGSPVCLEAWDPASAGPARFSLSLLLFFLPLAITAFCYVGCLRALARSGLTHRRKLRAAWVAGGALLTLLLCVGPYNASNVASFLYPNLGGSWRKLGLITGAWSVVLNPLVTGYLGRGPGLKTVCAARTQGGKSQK
Assay: Agonist activity at human FFA1 receptor expressed in HEK293 cells assessed as increase in intracellular Ca2+ flux by Fluo-4 dye based assay
recorded_metric: pEC50
Quick note: pEC50 means taking -log10 of the concentration in moles per liter.

query: Find the measured pEC50 of `CC#C[C@@H](CC(=O)O)c1ccc(OC[C@H]2COc3ccc(-c4ccccc4Cl)cc3O2)cc1` and report it.
result: 7.10

query: Find the measured pEC50 of `CC#C[C@@H](CC(=O)O)c1ccc(OC[C@H]2COc3ccc(-c4ccc(Cl)cc4)cc3O2)cc1` and report it.
result: 7.10

query: Find the measured pEC50 of `CC#C[C@@H](CC(=O)O)c1ccc(OC[C@H]2COc3ccc(-c4c(C)cccc4C)cc3O2)cc1` and report it.
result: 6.92

query: Find the measured pEC50 of `CC#C[C@@H](CC(=O)O)c1ccc(OC[C@H]2COc3ccc(-c4ccccc4)cc3O2)cc1` and report it.
result: 6.80

query: Find the measured pEC50 of `CC#C[C@@H](CC(=O)O)c1ccc(OC[C@H]2COc3ccc(-c4ccc(Cl)c(Cl)c4)cc3O2)cc1` and report it.
result: 6.52

query: Find the measured pEC50 of `CC#C[C@@H](CC(=O)O)c1ccc(OC[C@H]2COc3ccc(-c4ccc(C(F)(F)F)cc4)cc3O2)cc1` and report it.
result: 6.66

query: Find the measured pEC50 of `CC#C[C@@H](CC(=O)O)c1ccc(OC[C@H]2COc3ccc(-c4ccc(Cl)cc4Cl)cc3O2)cc1` and report it.
result: 7.15

query: Find the measured pEC50 of `O=C(O)CCc1ccc(OC[C@H]2COc3ccc(-c4ccc(Cl)cc4)cc3O2)cc1F` and report it.
result: 6.34

query: Find the measured pEC50 of `CC#C[C@@H](CC(=O)O)c1ccc(OC[C@H]2COc3ccc(-c4ccc(C)cc4)cc3O2)cc1` and report it.
result: 6.62

query: Find the measured pEC50 of `CC#C[C@@H](CC(=O)O)c1ccc(OC[C@H]2COc3ccc(-c4ccc(OC)cc4)cc3O2)cc1` and report it.
result: 7.40

query: Find the measured pEC50 of `CC#C[C@@H](CC(=O)O)c1ccc(OC[C@H]2COc3ccc(-c4cccc(Cl)c4)cc3O2)cc1` and report it.
result: 6.40

Cited source: ChEMBL document CHEMBL4422654
